The reported measurements were obtained from patent US5539123A.

tested-target: Human Leucocyte Elastase (Homo sapiens, UniProt P08246)
Construct: Human leucocyte elastase from human sputum was purchased from elastin corporation; purchased elastin corporation; host or cells: human sputum
Sequence (P08246 30-247 limits assumed): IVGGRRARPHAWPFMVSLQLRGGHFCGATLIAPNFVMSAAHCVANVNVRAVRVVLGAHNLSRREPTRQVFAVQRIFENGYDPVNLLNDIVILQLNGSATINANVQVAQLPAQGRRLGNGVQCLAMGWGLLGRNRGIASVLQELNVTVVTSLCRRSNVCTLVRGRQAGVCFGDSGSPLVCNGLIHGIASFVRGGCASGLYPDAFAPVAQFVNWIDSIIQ
test-details: Inactivation of Human Leucocyte Elastase (HLE-catalyzed hydrolysis of N-Methoxysuccinyl-L-Ala-L-Ala-L-Pro-L-Val-p-nitroanilide)
Assay type: biochemical
test-parameters: second order rate constant; pH 7.5, 25° C., inactivation followed for 2 hours; read-out: kobs/I
Protocol: Therefore, second order rate constants (kobs /I, M^-1 s^-1), (I=concentration inhibitor molar) shown in Formula 1, were determined by following the inactivation of the enzyme for 2 hours as described in the experimental section. […] Human leucocyte elastase from human sputum was purchased from elastin corporation. […] Absorbance was measured with a VARIAN CARY-2200 spectrophotometer at 410 nm. […]
reported-metric: kinact/KI (M⁻¹ s⁻¹)

[
  {
    "compound": "O=C(Nc1ccccc1)Sc1nnnn1-c1ccccc1",
    "units": "M⁻¹ s⁻¹",
    "kinact/KI": 190
  },
  {
    "compound": "CCCCNC(=O)Sc1nnnn1-c1ccccc1",
    "units": "M⁻¹ s⁻¹",
    "kinact/KI": 210000
  },
  {
    "compound": "C=CCNC(=O)Sc1nnnn1-c1ccccc1",
    "units": "M⁻¹ s⁻¹",
    "kinact/KI": 61000
  }
]

I = CCCCN(CC)C(=O)Sc1nnnn1-c1ccccc1
II = CC(C)NC(=O)Sc1nnnn1-c1ccccc1
Exercise: Of the pair I and II , name the member with the lesser recorded kinact/KI. In your reply, give the label of the chosen option.
Key: I
(I: 180 M⁻¹ s⁻¹, II: 3300 M⁻¹ s⁻¹)
